Below is a list of entries, each paired with its recorded Kd value.
Target: T1, GFP-9S library array, motif 4 ND N98L;D124P (synthetic construct, N98L;D124P)
T1 chain: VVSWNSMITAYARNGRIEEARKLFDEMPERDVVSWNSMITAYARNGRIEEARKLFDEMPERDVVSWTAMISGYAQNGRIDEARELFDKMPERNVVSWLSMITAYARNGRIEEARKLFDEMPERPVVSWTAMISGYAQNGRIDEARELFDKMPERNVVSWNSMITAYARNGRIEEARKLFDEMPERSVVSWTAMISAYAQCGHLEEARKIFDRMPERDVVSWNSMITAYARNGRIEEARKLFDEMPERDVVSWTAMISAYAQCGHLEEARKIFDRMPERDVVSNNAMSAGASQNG
Experiment: high-throughput RNA pulldown from lysate on Ni-NTA beads; HRP: 50 mM Tris pH 8, 150 mM NaCl, 1 mM beta-mercaptoethanol, 50 ug/ml BSA, 3 ug/ml yeast RNA, 0.5% heparin; ITC and FP: Tris pH 8, 200 mM KCl, 5% glycerol; MST: 50 mM Tris pH 8, 200 mM NaCl, 1 mM DTT, BSA, heparin, 0.05% Tween 20
Conditions: tags: N-terminal His-eGFP; label: 5' Cy5
The reply should be a number in nM, with the unit left off.

AUUAGACGUGA (ssRNA) [Cy5-rpoA-G] | 114

Here's the next entry for you.
Q: Look at this binder and give its reported Kd. AUUACACGUGA (ssRNA) [Cy5-rpoA]
Ans: 97.7

Values were extracted from paper PMC8809517.
